Molecular target: human IGF-1R on FDCP-2 cells (human, UniProt P08069 31-1367)
Test: cell-based or functional assay
Positions of bridges follow the written chain, without caps; N, C: chain ends. No end group written: not given here.
In this section, each of the binders is paired with its reported Max Action.

BINDER | MEASURED RESULT
GSLDESFYDWFERQLG (also called RP9 minus terminal lysines) [RP9] | < 10%
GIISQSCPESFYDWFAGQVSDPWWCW (Recombinant form) [recombinant peptide surrogate G33 (rG33)] | > 50
WLDQERAWLWCEISGRGCLSGGSGGSGGSGGSGSLDESFYDWFERQLGKK (not fully specified (bridges); cysteine pairing not given here, Site 2-Site 1 dimer peptide, recombinant; also called D815-RP9 (12 aa linker); D815-12-RP9) [D815-12aa-RP9] | 100
WLDQERAWLWCEISGRGCLS (disulfide 11-18 (inferred), Recombinant form) [recombinant peptide surrogate D815 (rD815)] | > 50%
D815-6aa-G33 (Site 2-Site 1 dimer peptide, recombinant; also called D815-G33 (6 aa linker); D815-6-G33) peptide: WLDQERAWLWCEISGRGCLSGGSGGSGIISQSCPESFYDWFAGQVSDPWWCW | < 10%

Now let's try a different one.
Challenge: Recorded Max Action of WLDQERAWLWCEISGRGCLSGGSGGSGSLDESFYDWFERQLGKK (Site 2-Site 1 dimer peptide, recombinant; also called D815-RP9 (6 aa linker); D815-6-RP9) [D815-6aa-RP9] , please.
Response given: > 50%

Hey, just so you know, these numbers are from patent US20030236190A1.
